// read-out log10(Ki), gathered for UniProtKB Q8VNN2 from published studies
Sequence (Q8VNN2 whole entry): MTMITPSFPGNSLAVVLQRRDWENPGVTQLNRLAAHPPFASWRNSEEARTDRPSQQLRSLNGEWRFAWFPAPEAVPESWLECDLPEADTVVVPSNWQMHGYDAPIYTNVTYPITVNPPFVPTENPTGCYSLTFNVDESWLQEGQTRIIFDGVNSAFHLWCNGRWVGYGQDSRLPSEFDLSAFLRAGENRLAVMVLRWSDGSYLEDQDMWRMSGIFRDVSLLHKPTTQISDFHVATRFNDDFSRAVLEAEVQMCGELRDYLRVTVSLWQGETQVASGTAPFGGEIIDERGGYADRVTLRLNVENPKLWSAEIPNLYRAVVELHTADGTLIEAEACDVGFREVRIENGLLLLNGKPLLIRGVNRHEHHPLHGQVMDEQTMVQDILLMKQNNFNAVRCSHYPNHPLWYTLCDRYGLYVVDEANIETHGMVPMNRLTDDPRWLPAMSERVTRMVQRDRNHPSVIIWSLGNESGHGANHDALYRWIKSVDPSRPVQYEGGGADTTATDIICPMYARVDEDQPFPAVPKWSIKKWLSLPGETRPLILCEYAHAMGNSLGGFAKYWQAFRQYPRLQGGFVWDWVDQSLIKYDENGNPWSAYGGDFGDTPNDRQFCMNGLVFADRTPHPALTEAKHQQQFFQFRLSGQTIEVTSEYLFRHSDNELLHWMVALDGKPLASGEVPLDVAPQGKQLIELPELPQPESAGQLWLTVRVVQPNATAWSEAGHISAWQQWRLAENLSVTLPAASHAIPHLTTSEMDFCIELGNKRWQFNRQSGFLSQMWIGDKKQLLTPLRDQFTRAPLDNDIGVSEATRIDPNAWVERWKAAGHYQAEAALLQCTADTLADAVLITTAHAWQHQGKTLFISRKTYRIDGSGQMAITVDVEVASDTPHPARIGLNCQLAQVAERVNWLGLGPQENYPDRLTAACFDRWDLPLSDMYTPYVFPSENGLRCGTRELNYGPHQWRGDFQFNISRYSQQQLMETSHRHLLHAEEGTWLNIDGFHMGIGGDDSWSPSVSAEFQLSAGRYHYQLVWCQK
Please interpret these as log10 of Ki where Ki is in µM.

The cases that follow already have their log10(Ki) on record.
NCCCC[C@H]1NC[C@@H](O)[C@@H](O)[C@H]1CO
-0.55
OC[C@H]1O[C@@H](n2cc(-c3ccccc3)nn2)[C@H](O)[C@@H](O)[C@@H]1O
2.52
OC[C@H]1O[C@@H](S[C@@H]2CO[C@@H](OCc3ccccc3)[C@@H](O)C2)[C@H](O)[C@@H](O)[C@H]1O
1.51

Items follow; give log10(Ki) for each.
1. OC[C@H]1CNC[C@@H](O)[C@H]1O
2. CC(C)O[C@H]1O[C@H](CO)[C@H](S[C@@H]2OC[C@@H](O)[C@H](O)[C@H]2O)C[C@H]1O

1. -1.51
2. 2.20

log10(Ki) of OCC[C@H]1NC[C@@H](O)[C@@H](O)[C@H]1CO on UniProtKB Q8VNN2?
-1.31
